test method notes: Blood levels after oral administration to mice (Table 4)
Format: in vivo
experimental context: mouse, 100 mg/kg, oral 100 mg/kg, 150 min, assay organism S. aureus A-9606, read-out: Blood level
measured parameter: concentration at […]

Please report the recorded concentration at […] for CC1(CCl)C(C(=O)O)N2C(=O)CC2S1(=O)=O (stereo not shown) .
< 2600 ng/mL

----------
test method notes: Blood levels and half-life of BL-P2024 after oral administration of various doses to mice (Table 5)
Format: in vivo
experimental context: mouse, oral 100 mg/kg, 120 min, read-out: Blood level
measured parameter: concentration at 2 h
In your response, the unit should come after the numeric value.

Please report the recorded concentration at 2 h for CC(C)(C)C(=O)OCOC(=O)C1N2C(=O)CC2S(=O)(=O)C1(C)CCl (stereo not shown) .
5700 ng/mL
